Where do these numbers come from? They come from BigSolDB 2.1.

Settings: in methanol, 303.15 K
Where a SMILES comes first, the peptide text is derived from it.
Readout type: solubility (mole fraction)

IN: Given the compound COC(=O)[C@H](Cc1ccccc1)NC(=O)[C@@H](N)CC(=O)O (H-Asp-Phe-OMe) , what is its reported solubility (mole fraction)?
OUT: 0.000939

###

Conditions: in ethanol, 333.15 K
Where a SMILES comes first, the peptide text is derived from it.
Readout type: solubility (mole fraction)

IN: Given the molecule COC(=O)[C@H](Cc1ccccc1)NC(=O)[C@@H](N)CC(=O)O (H-Asp-Phe-OMe) , what is its reported solubility (mole fraction)?
OUT: 0.000493

###

Settings: in water, 298.15 K
Where a SMILES comes first, the peptide text is derived from it.
Readout type: solubility (mole fraction)
The answer should be a number; do not append a unit.

IN: Given the molecule COC(=O)[C@H](Cc1ccccc1)NC(=O)[C@@H](N)CC(=O)O (H-Asp-Phe-OMe) , what is its reported solubility (mole fraction)?
OUT: 0.000701

###

Conditions: in water, 323.15 K
Where a SMILES comes first, the peptide text is derived from it.
Readout type: solubility (mole fraction)
The answer should be a number; do not append a unit.

IN: Given the compound COC(=O)[C@H](Cc1ccccc1)NC(=O)[C@@H](N)CC(=O)O (H-Asp-Phe-OMe) , what is its reported solubility (mole fraction)?
OUT: 0.00182

###

Settings: in water, 278.15 K
Where a SMILES comes first, the peptide text is derived from it.
Readout type: solubility (mole fraction)
The answer should be a number; do not append a unit.

IN: Given the molecule COC(=O)[C@H](Cc1ccccc1)NC(=O)[C@@H](N)CC(=O)O (H-Asp-Phe-OMe) , what is its reported solubility (mole fraction)?
OUT: 0.000338

###

Conditions: in ethanol, 323.15 K
Where a SMILES comes first, the peptide text is derived from it.
Readout type: solubility (mole fraction)

IN: Given the molecule COC(=O)[C@H](Cc1ccccc1)NC(=O)[C@@H](N)CC(=O)O (H-Asp-Phe-OMe) , what is its reported solubility (mole fraction)?
OUT: 0.000347

###

Settings: in methanol, 308.15 K
Where a SMILES comes first, the peptide text is derived from it.
Readout type: solubility (mole fraction)
The answer should be a number; do not append a unit.

IN: Given the molecule COC(=O)[C@H](Cc1ccccc1)NC(=O)[C@@H](N)CC(=O)O (H-Asp-Phe-OMe) , what is its reported solubility (mole fraction)?
OUT: 0.00107

###

Conditions: in water, 313.15 K
Where a SMILES comes first, the peptide text is derived from it.
Readout type: solubility (mole fraction)
The answer should be a number; do not append a unit.

IN: Given the compound COC(=O)[C@H](Cc1ccccc1)NC(=O)[C@@H](N)CC(=O)O (H-Asp-Phe-OMe) , what is its reported solubility (mole fraction)?
OUT: 0.00123

###

Settings: in water, 308.15 K
Where a SMILES comes first, the peptide text is derived from it.
Readout type: solubility (mole fraction)

IN: Given the molecule COC(=O)[C@H](Cc1ccccc1)NC(=O)[C@@H](N)CC(=O)O (H-Asp-Phe-OMe) , what is its reported solubility (mole fraction)?
OUT: 0.00102

###

Details: in ethanol, 318.15 K
Where a SMILES comes first, the peptide text is derived from it.
Readout type: solubility (mole fraction)
The answer should be a number; do not append a unit.

IN: Given the compound COC(=O)[C@H](Cc1ccccc1)NC(=O)[C@@H](N)CC(=O)O (H-Asp-Phe-OMe) , what is its reported solubility (mole fraction)?
OUT: 0.000291
